Target: human GR (Homo sapiens, UniProt P04150)
Assay: Transrepression Assay (GITAR), TNFα-β-lactamase reporter in U937 cells
Type: cell-based
Set-up: U937 cells contain an endogenous glucocorticoid receptor (GR); endogenous in cells; host or cells: U937 cells stably transfected with the TNF-alpha promoter/beta-lactamase reporter
Details: GITAR Emax minus GRAMMER Emax
Overview of recorded GITAR > GRAMM % SEP for various compounds

| compound | GITAR > GRAMM % SEP [%] |
| --- | --- |
| C[C@]12Cc3cnn(-c4ccc(F)cc4)c3C=C1CC[C@@H]2CN(CC1CCCO1)S(=O)(=O)c1ccc(C(N)=O)cc1 (stereo partly shown) | 10.1 |
| COc1cccc(CCN(C[C@H]2CCC3=Cc4c(cnn4-c4ccc(F)cc4)C[C@@]32C)S(=O)(=O)CC(F)(F)F)c1 | 11.7 |
| CN(C[C@H]1CCC2=Cc3c(cnn3-c3ccc(F)cc3)C[C@@]21C)S(=O)(=O)CC(F)(F)F | 12.9 |
| C[C@]12Cc3cnn(-c4ccc(F)cc4)c3C=C1CC[C@@H]2CN(CC(O)c1cccnc1)S(=O)(=O)CC(F)(F)F (stereo partly shown) | 7.7 |
| Cn1nc(C(F)(F)F)cc1-c1ccc(S(=O)(=O)N(CC#N)C[C@H]2CCC3=Cc4c(cnn4-c4ccc(F)cc4)C[C@@]32C)s1 | 34.6 |
| Cn1cc(S(=O)(=O)N(CCO)C[C@H]2CCC3=Cc4c(cnn4-c4ccc(F)cc4)C[C@@]32C)c(C(F)(F)F)n1 | 41.3 |
| C[C@]12Cc3cnn(-c4ccc(F)cc4)c3C=C1CC[C@@H]2CN(CCO)S(=O)(=O)c1ccc(C#N)cc1 | 42.5 |
| C[C@]12Cc3cnn(-c4ccc(F)cc4)c3C=C1CC[C@@H]2CN(CC#N)S(=O)(=O)c1ccccc1C#N | 35.7 |
| CC(C)(O)CN(C[C@H]1CCC2=Cc3c(cnn3-c3ccc(F)cc3)C[C@@]21C)S(=O)(=O)c1ccccc1F | 22.2 |
| COC(=O)c1ccccc1CS(=O)(=O)N(CC(O)C(F)(F)F)C[C@H]1CCC2=Cc3c(cnn3-c3ccc(F)cc3)C[C@@]21C (stereo partly shown) | 3.7 |
| C[C@H](O)CN(C[C@H]1CCC2=Cc3c(cnn3-c3ccc(F)cc3)C[C@@]21C)S(=O)(=O)Cc1ccccc1C(N)=O | 43.1 |
| Cn1cc(S(=O)(=O)N(CCc2ccccc2F)C[C@H]2CCC3=Cc4c(cnn4-c4ccc(F)cc4)C[C@@]32C)c(C(F)(F)F)n1 | 13.2 |
| CCN(C[C@H]1CCC2=Cc3c(cnn3-c3ccc(F)cc3)C[C@@]21C)S(=O)(=O)CC(F)(F)F | 31.2 |
| C[C@]12Cc3cnn(-c4ccc(F)cc4)c3C=C1CC[C@@H]2CN(Cc1ccccc1F)S(=O)(=O)c1cccc(C(N)=O)c1 | 23.2 |
| C[C@]12Cc3cnn(-c4ccc(F)cc4)c3C=C1CC[C@@H]2CN(CCCc1ccccc1)S(=O)(=O)CC(F)(F)F | 18.6 |
| CNC(=O)Nc1ccc(S(=O)(=O)N(CC2CC2)C[C@H]2CCC3=Cc4c(cnn4-c4ccc(F)cc4)C[C@@]32C)c(Cl)c1 | 34.1 |
| C[C@]12Cc3cnn(-c4ccccc4)c3C=C1CC[C@@H]2CN(CCc1ccccc1F)S(=O)(=O)CC(F)(F)F | 14.0 |
| C[C@]12Cc3cnn(-c4ccc(F)cc4)c3C=C1CC[C@@H]2CNS(=O)(=O)Cc1cccnc1 | 56.1 |
| C[C@]12Cc3cnn(-c4ccc(F)cc4)c3C=C1CC[C@@H]2CN(CCc1ccccn1)S(=O)(=O)Cc1ccccn1 | 23.4 |
| CC(C)CS(=O)(=O)N(CCc1ccccc1F)C[C@H]1CCC2=Cc3c(cnn3-c3ccc(F)cc3)C[C@@]21C | 7.7 |
| CC(C1CCC2=Cc3c(cnn3-c3ccc(F)cc3)C[C@@]21C)N(CC1CC1)S(=O)(=O)CC(F)(F)F (stereo partly shown) | 37.0 |
| Cc1ccc(S(=O)(=O)N(CC#N)C[C@H]2CCC3=Cc4c(cnn4-c4ccc(F)cc4)C[C@@]32C)s1 | 34.0 |

----------
Target: human GR (Homo sapiens, UniProt P04150)
Test: Transrepression Assay (GITAR), TNFα-β-lactamase reporter in U937 cells
Format: cell-based
Design: U937 cells contain an endogenous glucocorticoid receptor (GR); endogenous in cells; host or cells: U937 cells stably transfected with the TNF-alpha promoter/beta-lactamase reporter
Settings: U-937, U937 cells; maximum activity; read-out: Transrepression U937 Cells GITAR Emax
We begin with a simple list: items and their reported Emax.

| compound | Emax / % |
| --- | --- |
| COC(=O)c1ccccc1CS(=O)(=O)N(CCc1ccccc1F)C[C@H]1CCC2=Cc3c(cnn3-c3ccc(F)cc3)C[C@@]21C | 60.5 |
| C[C@]12Cc3cnn(-c4ccc(F)cc4)c3C=C1CC[C@@H]2CN(CCO)S(=O)(=O)c1cc(F)cc(F)c1 | 60.8 |
| CCCS(=O)(=O)N(CC(O)C(F)F)C[C@H]1CCC2=Cc3c(cnn3-c3ccc(F)cc3)C[C@@]21C (stereo partly drawn) | 61.3 |

----------
Biological target: human GR (Homo sapiens)
Sequence (P04150 1-777): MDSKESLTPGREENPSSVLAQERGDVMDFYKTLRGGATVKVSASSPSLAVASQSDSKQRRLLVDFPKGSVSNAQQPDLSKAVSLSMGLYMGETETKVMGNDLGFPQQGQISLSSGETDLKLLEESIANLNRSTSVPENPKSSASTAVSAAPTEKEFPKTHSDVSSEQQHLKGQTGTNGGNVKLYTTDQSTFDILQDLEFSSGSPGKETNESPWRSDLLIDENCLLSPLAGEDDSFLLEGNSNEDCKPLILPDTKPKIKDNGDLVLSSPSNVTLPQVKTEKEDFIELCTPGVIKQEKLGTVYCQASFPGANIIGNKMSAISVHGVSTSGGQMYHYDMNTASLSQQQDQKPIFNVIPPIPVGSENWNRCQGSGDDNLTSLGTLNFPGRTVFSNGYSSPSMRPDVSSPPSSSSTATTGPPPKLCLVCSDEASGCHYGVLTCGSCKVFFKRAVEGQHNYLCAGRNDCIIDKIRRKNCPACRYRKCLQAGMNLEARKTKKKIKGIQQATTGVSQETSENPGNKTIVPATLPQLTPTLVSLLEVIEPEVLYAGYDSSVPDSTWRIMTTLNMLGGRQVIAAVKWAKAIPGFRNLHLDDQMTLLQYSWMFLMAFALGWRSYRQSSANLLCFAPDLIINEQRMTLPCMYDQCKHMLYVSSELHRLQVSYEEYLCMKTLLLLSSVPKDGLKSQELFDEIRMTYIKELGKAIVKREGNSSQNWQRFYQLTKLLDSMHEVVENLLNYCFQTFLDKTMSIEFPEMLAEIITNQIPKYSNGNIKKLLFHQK
Experiment: Transrepression Assay (GITAR), TNFα-β-lactamase reporter in U937 cells
Assay type: cell-based
Design: U937 cells contain an endogenous glucocorticoid receptor (GR); endogenous in cells; host or cells: U937 cells stably transfected with the TNF-alpha promoter/beta-lactamase reporter
Details: U937 cells; inflection point; read-out: Transrepression U937 Cells GITAR IP
measuredParameter: EC50 (nM)

| molecule | measuredOn | measuredParameter | value |
| --- | --- | --- | --- |
| C[C@]12Cc3cnn(-c4ccc(F)cc4)c3C=C1CC[C@@H]2CN(CCc1ccccc1F)S(=O)(=O)Cc1cccc(Cl)c1 [Example 106] | human GR (Homo sapiens) | EC50 | 44.1 |
| Cc1ccccc1S(=O)(=O)N(CCO)C[C@H]1CCC2=Cc3c(cnn3-c3ccc(F)cc3)C[C@@]21C [Example 77] | human GR (Homo sapiens) | EC50 | 1130 |
| Cn1cnc(S(=O)(=O)N(CC#N)C[C@H]2CCC3=Cc4c(cnn4-c4ccc(F)cc4)C[C@@]32C)c1 [Example 37] | human GR (Homo sapiens) | EC50 | 1350 |
| C[C@]12Cc3cnn(-c4ccc(F)cc4)c3C=C1CC[C@@H]2CN(CC(O)c1ccncc1)S(=O)(=O)CC(F)(F)F (stereo partly drawn) [Example 144] | human GR (Homo sapiens) | EC50 | 334 |
| Cc1nn(C)c(Cl)c1S(=O)(=O)N(CCO)C[C@H]1CCC2=Cc3c(cnn3-c3ccc(F)cc3)C[C@@]21C [Example 83] | human GR (Homo sapiens) | EC50 | 1320 |
| CCN(C[C@H]1CCC2=Cc3c(cnn3-c3ccc(F)cc3)C[C@@]21C)S(=O)(=O)CC(F)(F)F [Example 179] | human GR (Homo sapiens) | EC50 | 440 |

----------
Reported GITAR > GRAMM % SEP values for a set of compounds
Target: human GR (Homo sapiens, UniProt P04150)
Experiment: Transrepression Assay (GITAR), TNFα-β-lactamase reporter in U937 cells
Type: cell-based
Set-up: U937 cells contain an endogenous glucocorticoid receptor (GR); endogenous in cells; host or cells: U937 cells stably transfected with the TNF-alpha promoter/beta-lactamase reporter
Conditions: GITAR Emax minus GRAMMER Emax

| compound | measureUnit | GITAR > GRAMM % SEP |
| --- | --- | --- |
| Cc1noc(C)c1S(=O)(=O)N(CCO)C[C@H]1CCC2=Cc3c(cnn3-c3ccc(F)cc3)C[C@@]21C [Example 71] | % | 19.2 |
| C[C@]12Cc3cnn(-c4ccc(F)cc4)c3C=C1CC[C@@H]2CN(CC1CC1)S(=O)(=O)c1ccccc1Cl [Example 22] | % | 43.9 |
| C[C@]12Cc3cnn(-c4ccc(F)cc4)c3C=C1CC[C@@H]2CN(CC#N)S(=O)(=O)c1cc(F)cc(F)c1 [Example 44] | % | 20.8 |
| COCCN(C[C@H]1CCC2=Cc3c(cnn3-c3ccc(F)cc3)C[C@@]21C)S(=O)(=O)CC(F)(F)F [Example 97] | % | 2.2 |
